Molecular target: S1P3-R (Homo sapiens, UniProt Q99500)
Sequence (Q99500 whole entry): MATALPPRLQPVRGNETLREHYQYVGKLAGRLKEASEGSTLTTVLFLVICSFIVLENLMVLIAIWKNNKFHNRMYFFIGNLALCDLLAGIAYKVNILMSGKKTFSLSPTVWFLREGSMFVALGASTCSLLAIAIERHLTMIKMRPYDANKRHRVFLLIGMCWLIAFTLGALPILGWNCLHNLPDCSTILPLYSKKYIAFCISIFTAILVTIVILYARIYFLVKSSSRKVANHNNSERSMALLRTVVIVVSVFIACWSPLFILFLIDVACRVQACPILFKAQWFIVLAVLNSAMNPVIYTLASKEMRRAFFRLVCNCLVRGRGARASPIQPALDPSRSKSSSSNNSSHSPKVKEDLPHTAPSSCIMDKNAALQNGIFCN
Assay: S1P3-R agonist assay, CHO NFAT-BLA reporter
Format: cell-based
Settings: less potent than 5f
endpointLabel: loss of potency at S1P3-R relative to 5f (fold)

- O=C(c1cc(C2CC2)on1)N(C1CCCCC1)C1CCOCC1: 33
- O=C(c1cc(C2CC2)on1)N(C1CCCCC1)C1CCCC1: 16
- O=C(c1cc(C2CC2)on1)N(C1CCCCCC1)C1CCCC1: 26
- O=C(c1cc(C2CC2)on1)N(CC1CCCCC1)C1CCCCC1: 32

----------
Target: S1P3-R (Homo sapiens, UniProt Q99500)
Assay: S1P3-R agonist assay, CHO NFAT-BLA reporter
Assay type: cell-based
Conditions: less potent than 1a
// reported loss in potency for the S1P3-R relative to hit 1a per item
endpointLabel: loss in potency for the S1P3-R relative to hit 1a (fold)

* CCOc1ccc(-c2cc(C(=O)N(C3CCCCC3)C3CCCCC3)no2)cc1OCC | 18
* Cc1cc(C(=O)N(C2CCCCC2)C2CCCCC2)no1 | 15
* CCCc1cc(C(=O)N(C2CCCCC2)C2CCCC2)no1 | 18
